test: Rabbit plasma and ocular tissue steady state pharmacokinetics, 8 daily oral doses; type: in vivo, Dutch Belted pigmented rabbits; conditions: male, Dutch Belted; rabbit Iris Ciliary Body, 50 mg/kg/day oral, Day 8
reported-endpoint: Cmax (ng/g)

structure-string	units-of-measure	quantitative-result
COc1cc(/C=C/C(=O)Nc2ccccc2C(=O)O)ccc1OC(F)F	ng/g	2510

====

assay: Rabbit plasma and ocular tissue steady state pharmacokinetics, 8 daily oral doses; type: in vivo, Dutch Belted pigmented rabbits; conditions: male, Dutch Belted; rabbit Choroid-RPE, 100 mg/kg/day oral, Day 8; read-out: Tmax

structure-string	Tmax, h
COc1cc(/C=C/C(=O)Nc2ccccc2C(=O)O)ccc1OC(F)F	2
